# Tested on: HB3
# experiment.description: qHTS profiling for inhibitors of Plasmodium falciparum proliferation (AID 504749); further: nearly all actives have a fitted effect of over 60% in size
# recorded.conditions: P. falciparum in erythrocytes, SYBR Green DNA, 72 h; series mostly up to 12.8 µM
Records with an inconclusive call do not appear. Calls of active or inactive are those of the source. The call rests on the fitted dose curve; in most records, active means well fitted inhibition curve with a large enough effect; inconclusive means small, poorly fitted or top-dose-only effect; inactive means flat fitted curve, though single readings scatter.
Permitted responses: T (active), F (inactive)

Example entries begin here.
[[record]]
compound = "CCC(=O)O[C@@H]1[C@H](C)O[C@H](O[C@H]2[C@@H](N(C)C)[C@H](O)[C@@H](O[C@@H]3[C@@H](CC=O)C[C@@H](C)[C@@H](O)/C=C\\C=C/C[C@@H](C)OC(=O)C[C@@H](OC(=O)CC)[C@H]3OC)O[C@H]2C)C[C@]1(C)O"
category_label = "F"

[[record]]
compound = "NC(CCC(=O)N[C@@H](CS)C(=O)NCC(=O)O)C(=O)O (stereo partly specified)"
category_label = "T"


Query string: Each compound tested received a call. Report the one for N[C@@H]1C(O)OC(CO)C(O)C1O (stereo partly specified) .
Result string: F

Query string: Check the results log: what was the call for C=Cc1c(C)c2cc3nc(cc4[nH]c(cc5nc(cc1[nH]2)C(C)=C5CCC(=O)O)c(CCC(=O)OC)c4C)[C@@]1(C)C3=CC=C(C(=O)OC)[C@H]1C(=O)OC (tested in a mixture with another compound) ?
Result string: T

Query string: Identify the outcome logged in this assay for the compound shown: `NC[C@@H]1O[C@@H](O[C@H]2[C@H](O)[C@H](O[C@@H]3O[C@H](CO)[C@@H](O)[C@H](N)[C@@H]3O)[C@@H](N)C[C@H]2N)[C@H](N)C[C@@H]1O`
Result string: F

Query string: Tell me the recorded outcome of this test for CCOC(=O)C1=CC(OC(CC)CC)C(NC(C)=O)C(N)C1 (stereo unspecified) .
Result string: F

###

# System: N140
# experiment.description: qHTS profiling for inhibitors of Plasmodium falciparum proliferation (AID 504749); further: nearly all actives have a fitted effect of over 60% in size
# recorded.conditions: P. falciparum in erythrocytes, SYBR Green DNA, 72 h; series mostly up to 12.8 µM
Records with an inconclusive call do not appear. Calls of active or inactive are those of the source. The call rests on the fitted dose curve; in most records, active means well fitted inhibition curve with a large enough effect; inconclusive means small, poorly fitted or top-dose-only effect; inactive means flat fitted curve, though single readings scatter.
API: response.call in Y = active, N = inactive

[[record]]
molecule = "CCC(C)C(=O)OC1CC(O)C=C2C=CC(C)C(CCC(O)CC(O)CC(=O)O)C21 (centres undefined)"
study_target = "N140"
category_label = "N"

[[record]]
molecule = "C[N+]12CCC(CC1)[C@@H](OC(=O)C(O)(c1ccccc1)c1ccccc1)C2"
study_target = "N140"
category_label = "N"

[[record]]
molecule = "CCCC(=O)O[C@]1(C(=O)CO)CCC2[C@@H]3CCC4=CC(=O)CC[C@]4(C)C3C(O)C[C@]21C (some centres undefined)"
study_target = "N140"
category_label = "N"

[[record]]
molecule = "CC(=O)[C@@H]1CC[C@@H]2[C@@H]3C[C@H](C)C4=CC(=O)CC[C@@]4(C)[C@H]3[C@H](O)C[C@]21C"
study_target = "N140"
category_label = "N"

[[record]]
molecule = "O=C(O)[C@@H]1[C@@H]2C[C@H]3c4[nH]c5ccccc5c4CCN3C[C@@H]2CC[C@@H]1O"
study_target = "N140"
category_label = "N"

[[record]]
molecule = "CCC(=O)O[C@@]1(C(=O)CCl)C(C)CC2C3CCC4=CC(=O)C=C[C@@]4(C)[C@]3(F)C(O)C[C@]21C (some centres undefined)"
study_target = "N140"
category_label = "Y"

[[record]]
molecule = "C[C@H](O)Cn1cnc2c1c(=O)n(C)c(=O)n2C"
study_target = "N140"
category_label = "N"

[[record]]
molecule = "C[C@]1(c2ccccc2)OC(C(=O)O)=CC1=O"
study_target = "N140"
category_label = "N"


Continue with the molecule presented below.
Query string: Assay result, entry `C[C@H]1CS(=O)(=O)CCN1/N=C\c1ccc([N+](=O)[O-])o1` — outcome?
Result string: N

###

# study.target: Cytochrome P450 2D6 (Homo sapiens) (UniProt P10635)
# Sequence (P10635 whole entry, looked up): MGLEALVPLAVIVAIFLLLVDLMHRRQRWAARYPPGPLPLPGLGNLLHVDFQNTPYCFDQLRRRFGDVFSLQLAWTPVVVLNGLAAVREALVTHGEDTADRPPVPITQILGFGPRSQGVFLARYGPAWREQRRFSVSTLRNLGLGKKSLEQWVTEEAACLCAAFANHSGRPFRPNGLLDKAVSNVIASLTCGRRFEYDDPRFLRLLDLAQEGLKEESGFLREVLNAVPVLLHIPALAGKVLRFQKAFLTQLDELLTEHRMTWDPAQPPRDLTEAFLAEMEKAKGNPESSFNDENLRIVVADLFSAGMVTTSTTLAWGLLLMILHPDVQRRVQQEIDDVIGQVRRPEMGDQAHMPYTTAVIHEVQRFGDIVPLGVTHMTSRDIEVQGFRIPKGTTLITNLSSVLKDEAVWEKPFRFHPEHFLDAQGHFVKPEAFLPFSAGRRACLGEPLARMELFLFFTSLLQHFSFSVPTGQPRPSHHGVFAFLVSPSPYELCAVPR
# experiment.description: Cytochrome P450 family 2 subfamily D member 6 (CYP2D6) small molecule antagonists: luciferase biochemical (cell-free) qHTS assay (AID 1645840); further: nearly all actives have a fitted effect of over 55% in size
# recorded.conditions: P450-Glo CYP2D6 enzyme, luciferin luminescence, 1 h; series mostly up to 57.4 µM
Results filed as inconclusive are left out. Calls of active or inactive are those of the source. The call rests on the fitted dose curve; in most records, active means well fitted inhibition curve with a large enough effect in the repeat runs; inconclusive means weak or mixed curves; inactive means flat fitted curve, though single readings scatter.
Select the correct class. Options are active, inactive and nothing else.

Below, 3 molecules whose answers are already recorded.
[[record]]
molecule = "Cc1ccc(/C=C2\\C(=O)C3(C)CCC2C3(C)C)cc1 (stereo not given)"
study_target = "Cytochrome P450 2D6 (Homo sapiens) (UniProt P10635)"
category_label = "inactive"

[[record]]
molecule = "Cc1cccc(OCCCSc2nc(-c3ccc(C(C)(C)C)cc3)nc3cc(=O)[nH]n23)c1C"
study_target = "Cytochrome P450 2D6 (Homo sapiens) (UniProt P10635)"
category_label = "inactive"

[[record]]
molecule = "Cc1cc(-n2c(SCc3ccccc3F)nc3[nH]ncc3c2=O)ccc1Cl"
study_target = "Cytochrome P450 2D6 (Homo sapiens) (UniProt P10635)"
category_label = "active"


Query string: Just curious, what result did `Cc1ccc([S+](=O)([O-])NC2(c3ccccc3)CCCCC2)cc1` get here?
Result string: inactive

Query string: Assay outcome for `CCn1cc(/C=C(\NC(=O)c2ccc(C)cc2)C(=O)NCCCn2ccnc2)c2ccccc21` : what was it?
Result string: active

###

# Tested on: CP325
# experiment.description: qHTS profiling for inhibitors of Plasmodium falciparum proliferation (AID 504749); further: nearly all actives have a fitted effect of over 60% in size
# recorded.conditions: P. falciparum in erythrocytes, SYBR Green DNA, 72 h; series mostly up to 12.8 µM
Results filed as inconclusive are left out. Calls of active or inactive are those of the source. Calls come from the whole dose curve; as a rule, active = well fitted inhibition curve with a large enough effect; inconclusive = small, poorly fitted or top-dose-only effect; inactive = flat fitted curve, though single readings scatter.
Mark one answer only. Choices: 1.0 (active), 0.0 (inactive)

[[record]]
molecule = "CC(=O)O[C@H]1C[C@@]2(C)[C@H](C[C@@H](O)[C@H]3[C@@]4(C)CC[C@@H](O)[C@@H](C)[C@H]4CC[C@@]32C)C1=C(CCC=C(C)C)C(=O)O"
category_label = 0.0


Query string: // return assay outcome for `CO[C@@H]1C[C@H](O[C@H]2[C@@H](C)[C@H](O[C@@H]3O[C@@H](C)C[C@@H](N(C)C)[C@@H]3OC(C)=O)[C@H](C)C[C@]3(CO3)C(=O)[C@H](C)[C@H](OC(C)=O)[C@H](C)[C@H](C)OC(=O)[C@@H]2C)O[C@H](C)[C@@H]1OC(C)=O`
Result string: 0.0

Query string: Outcome? `O=C(O)COCCN1CCN([C@@H](c2ccccc2)c2ccc(Cl)cc2)CC1`
Result string: 0.0

Query string: Please share the test call associated with CC1(C)SC2C(N3C(=O)C(c4ccccc4)NC3(C)C)C(=O)N2C1C(=O)O (stereo unspecified) .
Result string: 0.0

Query string: How did this test come out for `NS(=O)(=O)c1cc2c(cc1C(F)(F)F)N[C@H](Cc1ccccc1)NS2(=O)=O` ?
Result string: 0.0

Query string: Kindly provide the recorded test outcome for the following molecule: `CCN(CCCCOC(=O)c1ccc(OC)c(OC)c1)[C@@H](C)Cc1ccc(OC)cc1`
Result string: 0.0

###

# study.target: Rap guanine nucleotide exchange factor 3 (Homo sapiens) (UniProt O95398)
# Sequence (O95398 whole entry, looked up): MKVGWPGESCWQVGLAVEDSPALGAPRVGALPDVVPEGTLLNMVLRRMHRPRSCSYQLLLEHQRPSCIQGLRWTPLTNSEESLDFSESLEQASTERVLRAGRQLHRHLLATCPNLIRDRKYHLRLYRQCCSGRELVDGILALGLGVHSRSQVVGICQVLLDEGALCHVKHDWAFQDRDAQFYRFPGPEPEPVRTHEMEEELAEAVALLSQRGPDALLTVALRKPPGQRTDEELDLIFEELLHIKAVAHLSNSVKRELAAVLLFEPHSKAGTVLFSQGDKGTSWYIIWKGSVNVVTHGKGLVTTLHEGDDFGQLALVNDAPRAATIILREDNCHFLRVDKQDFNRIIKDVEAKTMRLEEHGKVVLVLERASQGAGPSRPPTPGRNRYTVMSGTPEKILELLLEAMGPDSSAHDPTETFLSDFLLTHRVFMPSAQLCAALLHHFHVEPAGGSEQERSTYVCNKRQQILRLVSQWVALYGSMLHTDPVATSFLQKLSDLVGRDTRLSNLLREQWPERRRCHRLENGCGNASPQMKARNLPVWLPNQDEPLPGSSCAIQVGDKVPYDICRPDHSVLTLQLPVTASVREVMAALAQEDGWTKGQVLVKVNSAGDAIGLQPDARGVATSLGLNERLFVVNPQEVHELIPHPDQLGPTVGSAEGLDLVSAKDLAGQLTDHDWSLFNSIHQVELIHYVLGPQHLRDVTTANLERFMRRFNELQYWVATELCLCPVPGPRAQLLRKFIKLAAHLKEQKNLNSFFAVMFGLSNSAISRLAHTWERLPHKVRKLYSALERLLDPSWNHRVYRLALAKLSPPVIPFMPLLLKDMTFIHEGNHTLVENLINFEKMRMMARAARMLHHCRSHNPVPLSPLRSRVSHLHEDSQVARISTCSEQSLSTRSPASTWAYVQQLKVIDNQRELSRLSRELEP
# experiment.description: Counterscreen qHTS for antagonist of cAMP-regulated guanine nucleotide exchange factor 3 (EPAC1) (AID 1645888);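 further: fluorescence loss as bound BODIPY-GDP is released from Rap1B; % of control where 0% means no effect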
# recorded.conditions: Rap1B-BODIPY-GDP nucleotide exchange, fluorescence; series mostly up to 154 µM
Inconclusive results are not listed. Active and inactive are the calls of the source. Calls come from the whole dose curve; as a rule, active = well fitted inhibition curve with a large enough effect; inconclusive = small, poorly fitted or top-dose-only effect; inactive = no such curve, though single readings can be large or run the other way.
endpoint: activity change, negative = inhibition

Use these answered entries as a reference point.
[[record]]
molecule = "CCOC(=O)Cc1nn(Cc2ccccc2)c(=O)c2ccccc12"
measurement = "inactive"

[[record]]
molecule = "Cc1ccc(C(=O)ONc2ccc(N=NC(=O)c3ccccc3O)cc2)cc1"
measurement = "inactive"

[[record]]
molecule = "Cc1ccc2nc3sc(C(=O)NCc4ccco4)c(N)c3cc2c1"
measurement = "3.21% [at 30.8 µM] (inactive)"

[[record]]
molecule = "COC(=O)C1=NNCC12CC(=O)N(c1ccc(Br)cc1)C2=O (stereo unspecified)"
measurement = "inactive"

[[record]]
molecule = "COc1ccc(N2CCN(C(=O)CSc3ncn[nH]3)CC2)cc1"
measurement = "inactive"

[[record]]
molecule = "CSCCC(NC(=O)c1ccc(Cl)cc1)C(=O)OCC(=O)N1CCCC1=O (stereo unspecified)"
measurement = "5.02% [at 30.8 µM] (inactive)"


Query string: Form field - read-out: activity change, negative = inhibition; system: Rap guanine nucleotide exchange factor 3 (Homo sapiens) (UniProt O95398); submitted item: `CCc1ccccc1Oc1nc(NC(C)C)nc2ccsc12`
Result string: -29.4% [at 30.8 µM] (inactive)

Query string: Under Rap guanine nucleotide exchange factor 3 (Homo sapiens) (UniProt O95398): activity change, negative = inhibition value of `COc1ccccc1CNC(=O)CCCn1nc(C)c2c(C)n(-c3ccc(C)cc3)nc2c1=O` ?
Result string: inactive

Query string: Lab note: need activity change, negative = inhibition for CC(=O)NC(c1ccco1)c1cc(Cl)c2cccnc2c1O (stereo unspecified) on Rap guanine nucleotide exchange factor 3 (Homo sapiens) (UniProt O95398), anyone have it?
Result string: inactive

Query string: Give recorded activity change, negative = inhibition with Rap guanine nucleotide exchange factor 3 (Homo sapiens) (UniProt O95398) for the following molecule: CCCN1C(=O)c2[nH]nc(-c3ccccc3)c2C1c1cccc(O)c1 (stereo unspecified)
Result string: inactive

Query string: GET /values?readout=activity change, negative = inhibition&system=Rap guanine nucleotide exchange factor 3 (Homo sapiens) (UniProt O95398)&item= `CN(C(=O)c1cc(-c2ccccc2)on1)C1CCCCC1`
Result string: 29.1% [at 30.8 µM] (inactive)
